molecular target: Flt-4 (Homo sapiens)
Sequence (P35916 25-1363): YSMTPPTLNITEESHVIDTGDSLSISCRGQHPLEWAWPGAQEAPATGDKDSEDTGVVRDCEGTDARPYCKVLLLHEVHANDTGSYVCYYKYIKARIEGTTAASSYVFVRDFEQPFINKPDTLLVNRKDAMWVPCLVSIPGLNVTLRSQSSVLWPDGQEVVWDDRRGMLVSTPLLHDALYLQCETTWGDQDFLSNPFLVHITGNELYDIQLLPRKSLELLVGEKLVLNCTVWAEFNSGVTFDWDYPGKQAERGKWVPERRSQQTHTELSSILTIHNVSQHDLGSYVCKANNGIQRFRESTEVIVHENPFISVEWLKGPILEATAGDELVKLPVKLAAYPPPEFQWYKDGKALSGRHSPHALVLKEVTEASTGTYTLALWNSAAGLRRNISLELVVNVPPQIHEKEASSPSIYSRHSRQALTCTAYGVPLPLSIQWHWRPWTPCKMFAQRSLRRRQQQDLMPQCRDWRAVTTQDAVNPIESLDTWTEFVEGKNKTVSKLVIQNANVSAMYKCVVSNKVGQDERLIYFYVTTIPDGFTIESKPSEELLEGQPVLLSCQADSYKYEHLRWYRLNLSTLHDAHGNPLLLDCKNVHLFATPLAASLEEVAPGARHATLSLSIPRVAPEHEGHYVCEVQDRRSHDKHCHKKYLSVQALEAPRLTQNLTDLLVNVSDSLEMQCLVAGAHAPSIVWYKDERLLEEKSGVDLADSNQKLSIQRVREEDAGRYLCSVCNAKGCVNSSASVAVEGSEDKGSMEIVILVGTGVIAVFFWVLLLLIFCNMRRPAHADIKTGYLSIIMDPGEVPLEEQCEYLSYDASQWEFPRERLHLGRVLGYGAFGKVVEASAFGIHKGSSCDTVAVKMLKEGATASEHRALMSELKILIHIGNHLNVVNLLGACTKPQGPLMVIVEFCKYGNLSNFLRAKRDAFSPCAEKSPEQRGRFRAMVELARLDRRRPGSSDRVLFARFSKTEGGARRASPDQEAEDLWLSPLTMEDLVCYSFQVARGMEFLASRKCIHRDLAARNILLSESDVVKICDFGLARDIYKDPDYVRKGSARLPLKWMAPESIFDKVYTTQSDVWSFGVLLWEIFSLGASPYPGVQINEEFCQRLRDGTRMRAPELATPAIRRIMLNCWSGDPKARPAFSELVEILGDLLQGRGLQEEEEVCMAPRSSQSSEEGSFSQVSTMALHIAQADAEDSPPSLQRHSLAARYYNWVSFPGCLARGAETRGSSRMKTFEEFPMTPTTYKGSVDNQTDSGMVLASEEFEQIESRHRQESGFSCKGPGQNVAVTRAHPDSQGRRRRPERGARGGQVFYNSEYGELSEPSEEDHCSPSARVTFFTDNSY
reportedEndpoint: IC50 (nM)
Report the figure in nM without appending any unit label.

Please tell me: IC50 of O=C(Nc1ccc(Oc2ccnc(Cl)c2Cl)c(F)c1)c1nc(-c2ccc(F)c(Cl)c2)cs1 [Compound 51am] , system Flt-4 (Homo sapiens)?
276

###

Consider the following molecules and their measured melting point readings.

See these solved cases before continuing.
molecule="COc1cc2nccc(Oc3ccc(NC(=O)c4nc(-c5ccccc5)cs4)cc3)c2cc1OC [Compound 51e]" testvalue="63 to 65 °C"
molecule="O=C(Nc1ccc(Oc2ccnc3ccsc23)c(F)c1)c1nc(-c2ccccc2)cs1 [Compound 51q]" testvalue="251 to 253 °C"
molecule="O=C(Nc1ccc(Oc2ccnc(Cl)c2)c(F)c1)c1nc(-c2ccc(C(F)(F)F)cc2)cs1 [Compound 51ag]" testvalue="212 to 214 °C"
molecule="O=C(Nc1ccc(Oc2ccnc(Cl)c2)c(F)c1)c1nc(-c2ccc(Cl)c(Cl)c2)cs1 [Compound 51ah]" testvalue="195 to 197 °C"
molecule="COc1cc2nccc(Oc3ccc(NC(=O)c4nc(-c5ccccc5)cs4)cc3Cl)c2cc1OC [Compound 51l]" testvalue="146 to 148 °C"

// melting point lookup, key: O=C(Nc1ccc(Oc2ccnc3ccsc23)c(F)c1)c1nc(-c2ccc(F)cc2)cs1 [Compound 51r]
223 to 225 °C

###

Consider the following molecules and their measured pIC50 readings.
molecular target: c-Met (Homo sapiens)
Sequence (P08581 25-1390): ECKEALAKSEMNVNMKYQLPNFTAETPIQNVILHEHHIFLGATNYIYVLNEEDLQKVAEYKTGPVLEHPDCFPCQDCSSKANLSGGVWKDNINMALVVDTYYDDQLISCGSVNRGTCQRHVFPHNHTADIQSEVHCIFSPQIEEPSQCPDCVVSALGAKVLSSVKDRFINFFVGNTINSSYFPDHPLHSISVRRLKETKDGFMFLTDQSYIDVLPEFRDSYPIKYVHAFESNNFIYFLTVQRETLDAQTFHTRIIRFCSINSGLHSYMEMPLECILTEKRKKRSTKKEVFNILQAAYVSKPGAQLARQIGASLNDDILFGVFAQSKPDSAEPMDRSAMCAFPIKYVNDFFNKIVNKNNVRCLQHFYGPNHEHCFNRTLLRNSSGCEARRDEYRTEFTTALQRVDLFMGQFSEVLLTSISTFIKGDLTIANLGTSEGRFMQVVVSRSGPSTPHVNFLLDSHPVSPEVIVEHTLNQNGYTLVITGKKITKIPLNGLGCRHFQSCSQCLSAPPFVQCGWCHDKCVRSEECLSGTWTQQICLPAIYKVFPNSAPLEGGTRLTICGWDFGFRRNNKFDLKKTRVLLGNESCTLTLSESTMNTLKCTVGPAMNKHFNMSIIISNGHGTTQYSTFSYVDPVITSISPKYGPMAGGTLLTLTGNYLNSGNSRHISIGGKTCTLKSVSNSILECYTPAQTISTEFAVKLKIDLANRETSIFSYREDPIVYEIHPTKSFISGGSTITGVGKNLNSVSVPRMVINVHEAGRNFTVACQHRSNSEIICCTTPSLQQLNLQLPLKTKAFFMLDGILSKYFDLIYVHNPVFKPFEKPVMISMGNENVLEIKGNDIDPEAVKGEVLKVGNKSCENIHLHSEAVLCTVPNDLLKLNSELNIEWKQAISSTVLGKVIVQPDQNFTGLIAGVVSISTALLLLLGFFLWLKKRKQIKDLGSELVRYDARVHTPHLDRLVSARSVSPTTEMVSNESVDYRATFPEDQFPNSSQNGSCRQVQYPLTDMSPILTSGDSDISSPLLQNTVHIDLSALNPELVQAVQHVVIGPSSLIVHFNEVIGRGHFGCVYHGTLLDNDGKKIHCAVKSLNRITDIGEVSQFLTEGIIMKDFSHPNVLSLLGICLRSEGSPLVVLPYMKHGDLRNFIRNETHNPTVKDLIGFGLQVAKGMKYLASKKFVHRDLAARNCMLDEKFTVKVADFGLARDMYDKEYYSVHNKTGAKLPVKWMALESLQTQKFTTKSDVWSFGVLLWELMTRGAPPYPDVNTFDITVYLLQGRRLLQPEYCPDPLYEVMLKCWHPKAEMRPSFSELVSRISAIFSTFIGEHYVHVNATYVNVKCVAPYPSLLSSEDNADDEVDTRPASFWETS
Friendly reminder that pIC50 comes from taking -log10 of the concentration in mol/L.

See these solved cases before continuing.
molecule="O=C(Nc1ccc(Oc2ccnc(Cl)c2)c(F)c1)c1nc(-c2ccc(Cl)cc2)cs1 [Compound 51ad]" testedon="c-Met (Homo sapiens)" reportedendpoint=pIC50 testvalue=7.75
molecule="O=C(Nc1ccc(Oc2ccnc(Cl)c2)c(F)c1)c1nc(-c2cccs2)cs1 [Compound 51aj]" testedon="c-Met (Homo sapiens)" reportedendpoint=pIC50 testvalue=7.30
molecule="COc1cc2nccc(Oc3ccc(NC(=O)c4nc(-c5ccccc5)cs4)cc3Cl)c2cc1OC [Compound 51l]" testedon="c-Met (Homo sapiens)" reportedendpoint=pIC50 testvalue=7.50
molecule="O=C(Nc1ccc(Oc2ccnc(Cl)c2)c(F)c1)c1nc(-c2ccc(F)c(Cl)c2)cs1 [Compound 51ak]" testedon="c-Met (Homo sapiens)" reportedendpoint=pIC50 testvalue=8.41
molecule="O=C(Nc1ccc(Oc2ccnc(Cl)c2)c(F)c1)c1nc(-c2ccc(F)cc2)cs1 [Compound 51aa]" testedon="c-Met (Homo sapiens)" reportedendpoint=pIC50 testvalue=7.81
molecule="Cc1ccc(-c2csc(C(=O)Nc3ccc(Oc4ccnc(Cl)c4)c(F)c3)n2)cc1 [Compound 51x]" testedon="c-Met (Homo sapiens)" reportedendpoint=pIC50 testvalue=7.50
molecule="COc1cc2nccc(Oc3ccc(NC(=O)c4nc(-c5ccc(F)cc5)cs4)cc3)c2cc1OC [Compound 51f]" testedon="c-Met (Homo sapiens)" reportedendpoint=pIC50 testvalue=7.54
molecule="O=C(Nc1ccc(Oc2ccnc(Cl)c2)c(F)c1)c1nc(-c2cccc(F)c2)cs1 [Compound 51ab]" testedon="c-Met (Homo sapiens)" reportedendpoint=pIC50 testvalue=7.63
molecule="COc1cc2nccc(Oc3ccc(NC(=O)c4nnc(-c5ccc(F)cc5)s4)cc3)c2cc1OC [Compound 51d]" testedon="c-Met (Homo sapiens)" reportedendpoint=pIC50 testvalue=7.38
molecule="O=C(Nc1ccc(Oc2ccnc(Cl)c2)c(F)c1)c1nc(-c2ccc(Cl)c(Cl)c2)cs1 [Compound 51ah]" testedon="c-Met (Homo sapiens)" reportedendpoint=pIC50 testvalue=8.03

Please tell me: pIC50 of COc1ccc(-c2csc(C(=O)Nc3ccc(Oc4ccnc(Cl)c4)c(F)c3)n2)cc1 [Compound 51y] , system c-Met (Homo sapiens)?
7.44
